Target: rat mGluR5 (Rattus norvegicus, UniProt P31424)
Sequence (P31424 21-1203): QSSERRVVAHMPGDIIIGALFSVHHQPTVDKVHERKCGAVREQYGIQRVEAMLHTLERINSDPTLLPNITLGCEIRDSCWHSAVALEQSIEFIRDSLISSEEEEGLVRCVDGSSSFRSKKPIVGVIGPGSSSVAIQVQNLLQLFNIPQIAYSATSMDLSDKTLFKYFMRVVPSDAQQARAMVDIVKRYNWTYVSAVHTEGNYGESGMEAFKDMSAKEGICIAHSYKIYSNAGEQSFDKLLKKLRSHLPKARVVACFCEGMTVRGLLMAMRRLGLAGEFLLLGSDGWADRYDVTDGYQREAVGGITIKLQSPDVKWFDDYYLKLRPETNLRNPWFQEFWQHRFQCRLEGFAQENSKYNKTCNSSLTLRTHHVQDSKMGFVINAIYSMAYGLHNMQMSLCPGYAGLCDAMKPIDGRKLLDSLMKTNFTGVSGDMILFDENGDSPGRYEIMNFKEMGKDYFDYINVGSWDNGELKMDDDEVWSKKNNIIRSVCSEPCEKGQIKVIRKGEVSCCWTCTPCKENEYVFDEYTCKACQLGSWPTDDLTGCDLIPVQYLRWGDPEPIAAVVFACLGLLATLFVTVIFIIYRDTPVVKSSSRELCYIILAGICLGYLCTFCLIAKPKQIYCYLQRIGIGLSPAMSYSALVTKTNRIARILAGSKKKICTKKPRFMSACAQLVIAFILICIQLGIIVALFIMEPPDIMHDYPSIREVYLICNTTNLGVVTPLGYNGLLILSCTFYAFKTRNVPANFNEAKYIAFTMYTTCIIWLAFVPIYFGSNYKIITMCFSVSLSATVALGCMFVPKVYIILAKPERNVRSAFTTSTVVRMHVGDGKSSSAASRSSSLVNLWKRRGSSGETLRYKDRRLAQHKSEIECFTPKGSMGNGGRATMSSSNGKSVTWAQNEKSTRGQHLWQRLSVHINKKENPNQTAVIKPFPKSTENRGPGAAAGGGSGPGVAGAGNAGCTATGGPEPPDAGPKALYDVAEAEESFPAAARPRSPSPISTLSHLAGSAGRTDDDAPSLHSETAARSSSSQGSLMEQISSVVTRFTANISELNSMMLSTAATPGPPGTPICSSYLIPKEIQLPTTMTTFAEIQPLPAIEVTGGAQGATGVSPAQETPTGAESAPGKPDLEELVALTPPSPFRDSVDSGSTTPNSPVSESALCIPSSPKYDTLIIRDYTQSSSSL
Experiment: cell-based
Items are presented alongside their recorded IC50.
Dear colleague, please return just the value in nM, with no unit written.

O=C(Nc1cccc(Oc2cccnc2)c1)c1cccc(F)n1 ... 3530
CN(c1cncnc1)c1cc(NC(=O)c2cccc(Br)c2)ccc1Cl ... 36

**Q:** Given COc1cccc(C(=O)Nc2cccc(N(C)c3cncnc3)c2)c1 , state its recorded IC50.
**A:** 108

**Q:** Given CN(c1cncnc1)c1cc(NC(=O)c2cccc(F)c2)ccc1Cl , state its recorded IC50.
**A:** 16

**Q:** Given N#Cc1cc(NC(=O)c2cc(Cl)ccn2)cc(Oc2cncnc2)c1 , state its recorded IC50.
**A:** 16

**Q:** Given COc1cccc(C(=O)Nc2cc(F)cc(Oc3cncnc3)c2)c1 , state its recorded IC50.
**A:** 311

**Q:** Given CCN(c1cccnc1)c1cccc(NC(=O)c2cccc(Cl)c2)c1 , state its recorded IC50.
**A:** 111

----------
Target: rat mGluR5 (Rattus norvegicus, UniProt P31424)
Assay: cell-based
Items are presented alongside their recorded log10(IC50).
Please note: log10 values; quantity IC50; unit nM.

O=C(Nc1cc(F)cc(Oc2cncnc2)c1)c1cccc(OC(F)(F)F)c1 ... 2.62
N#Cc1cccc(C(=O)Nc2cccc(Oc3cccnc3)c2)c1 ... 2.73
O=C(Nc1cc(F)c(F)c(Oc2cncnc2)c1)c1cc(F)ccn1 ... 3.23

**Q:** Given CN(c1cncnc1)c1cccc(NC(=O)c2cccc(C(F)(F)F)n2)c1 , state its recorded log10(IC50).
**A:** 1.53

**Q:** Given N#Cc1cccc(C(=O)Nc2cccc(Oc3cncnc3)c2)c1 , state its recorded log10(IC50).
**A:** 2.76

**Q:** Given Cc1nc(C(=O)Nc2cccc(Oc3cccnc3)c2)cs1 , state its recorded log10(IC50).
**A:** 3.62

**Q:** Given O=C(Nc1cccc(Oc2cccnc2)c1)c1cscn1 , state its recorded log10(IC50).
**A:** 3.10

**Q:** Given [2H]C([2H])([2H])N(c1cncnc1)c1cc(NC(=O)c2cccc(C#N)c2)ccc1Cl , state its recorded log10(IC50).
**A:** 1.92

**Q:** Given O=C(Nc1cccc(Oc2cncc(F)c2)c1)c1cccc(Br)c1 , state its recorded log10(IC50).
**A:** 2.09

**Q:** Given CN(c1cncnc1)c1cc(NC(=O)c2cccc(O)n2)ccc1F , state its recorded log10(IC50).
**A:** 3.46

**Q:** Given O=C(Nc1cc(Cl)cc(Oc2cncc(F)c2)c1)c1cccc(Cl)n1 , state its recorded log10(IC50).
**A:** 3.73

**Q:** Given Cc1ncccc1Oc1cccc(NC(=O)c2cccc(Cl)c2)c1 , state its recorded log10(IC50).
**A:** 3.35

**Q:** Given N#Cc1cccc(C(=O)Nc2cccc(Oc3cncc(Cl)c3)c2)c1 , state its recorded log10(IC50).
**A:** 2.19

**Q:** Given CN(c1cncnc1)c1cc(NC(=O)c2cccc(C#N)c2)ccc1F , state its recorded log10(IC50).
**A:** 1.71

**Q:** Given COc1ccnc(C(=O)Nc2cc(C#N)cc(Oc3cncnc3)c2)c1 , state its recorded log10(IC50).
**A:** 1.80

----------
Target: rat mGluR5 (Rattus norvegicus, UniProt P31424)
Assay: cell-based
Items are presented alongside their recorded log10 IC50.
Please note: log10 values; quantity IC50; unit nM.

CCN(c1cccnc1)c1cc(F)cc(NC(=O)c2cccc(Br)c2)c1 ... 2.82

**Q:** Given CN(c1cncnc1)c1cc(Cl)cc(NC(=O)c2cccc(Cl)c2)c1 , state its recorded log10 IC50.
**A:** 2.14

**Q:** Given CCN(c1cccnc1)c1cccc(NC(=O)c2cccc(C#N)c2)c1 , state its recorded log10 IC50.
**A:** 2.08

----------
Target: rat mGluR5 (Rattus norvegicus, UniProt P31424)
Experiment: cell-based
MEASURED METRIC: pIC50
Please express pIC50 as -log10 of the molar concentration.

Sample records with pIC50:
O=C(Nc1cccc(Oc2cccnc2)c1)c1cccc(C(F)(F)F)c1 ... 5.22
O=C(Nc1cccc(Oc2cncnc2)c1)c1cccc(Cl)c1 ... 7.12
Cc1cccc(C(=O)Nc2cccc(Oc3cccnc3)c2)c1 ... 6.54
COc1cccc(C(=O)Nc2cccc(Oc3cccnc3)c2)n1 ... 5.08
Cc1csc(C(=O)Nc2cccc(Oc3cccnc3)c2)n1 ... 6.33
CN(c1cncnc1)c1cc(NC(=O)c2cccc(F)c2)cc(F)c1F ... 7.55

Field: next compound
**Q:** Requested read-out pIC50, target or system rat mGluR5 (Rattus norvegicus, UniProt P31424), entry CN(c1cncnc1)c1cc(F)cc(NC(=O)c2cccc(F)c2)c1
**A:** 6.90

----------
Biological target: rat mGluR5 (Rattus norvegicus)
Test: cell-based
MEASURED METRIC: IC50

Sample records with IC50:
CC(C)CN(c1cncnc1)c1cc(NC(=O)c2cccc(Cl)c2)ccc1Cl ... > 10 µM
O=C(Nc1cccc(Oc2cccnc2)c1)c1cccc(Cl)c1F ... > 10 µM

Field: next molecule
**Q:** Given CN(c1cncc(Cl)c1)c1cccc(NC(=O)c2cccc(Cl)c2)c1 , state its recorded IC50.
**A:** > 10 µM
